experiment: Toxicity liver stage against HepG2, at 10uM; assay type: cell-based; set-up: test concentration 10 uM, cell line HepG2-A16-CD81EGFP; conditions: human, HepG2-A16-CD81EGFP cells; read-out: INHIBITION
For each record, write down the corresponding cytotoxicity at 10 µM.
Respond numerically; units are % and should not be typed.

Reported cytotoxicity at 10 µM for Cc1nccc(N2CCC(Cc3cccc(C(=O)O)c3)CC2)n1 : what is it? -135

Query (compound): Cc1nc(CNC(=O)NC2CCCN(c3ncccn3)C2)cs1 (stereo unspecified) ; field requested: cytotoxicity at 10 µM -140

Could you tell me which cytotoxicity at 10 µM is on file for c1cnc2c(c1)cc([C@@H]1CCCO1)n2CCN1CCCCC1 ? -25.9

May I ask what cytotoxicity at 10 µM has been recorded for CCOC(=O)N1CCC(Oc2ccc(C(F)(F)F)cn2)CC1 ? 7.5

Given the entry COc1ccc([C@@H]2CN(C(=O)CS(C)(=O)=O)C[C@H]2NC(C)=O)cc1 , report its measured cytotoxicity at 10 µM. 0.541

Give its cytotoxicity at 10 µM value. Item: CC1(C)CCN(S(=O)(=O)N2CCCC(c3cccc(C(=O)O)c3)C2)CC1 (stereo unspecified) -0.879

Fill blank: measured cytotoxicity at 10 µM of the compound CC(C)c1nc(CN(C)C(=O)C2CC(=O)N(Cc3ccncc3)C2)cs1 (stereo unspecified) is ____. -3.75

Fill in: cytotoxicity at 10 µM of FC(F)(F)C1CN(c2nc(-c3ccccc3)no2)CCO1 (stereo unspecified) is ___ -1.52

Fill blank: measured cytotoxicity at 10 µM of the compound COc1ccccc1-c1cc(NC(=O)CC2CCS(=O)(=O)C2)[nH]n1 (stereo unspecified) is ____. -113

# query: cytotoxicity at 10 µM of entry Cc1cnc(C)c(-c2cc(O)c3c(c2)CN(c2nccs2)CCO3)n1 1.08

For the compound shown here, Cc1ccccc1CN(C)C(=O)CN1CCCCC1Cn1cncn1 (stereo unspecified) , give the reported cytotoxicity at 10 µM. 8.44

If you can, please state the reported cytotoxicity at 10 µM value of CCc1nc(NCCc2nc(C)c(C)s2)c2cnn(C)c2n1 . 6.31

Param item = O=C(Cn1cccnc1=O)NC(Cc1ccsc1)c1ccccn1 (stereo unspecified) ; retrieve measured cytotoxicity at 10 µM. -5.66

What cytotoxicity at 10 µM value was documented for this compound, CCCc1nc(CNCC2CCCN2c2cccnn2)cs1 (stereo unspecified) ? -7.07

Looking for the measured cytotoxicity at 10 µM of O=C1[C@H]2CN(Cc3ccoc3)C[C@H]2CN1Cc1cccnc1 , can you help? -76.5

Which cytotoxicity at 10 µM value is on record for Cc1cc(N2CCC(C(=O)NC3CC3)CC2)nc(-c2ccncc2)n1 ? -17

Need cytotoxicity at 10 µM, item CNC(=O)NC(=O)CN1CCN(c2ccc(C(=O)OC)cc2)CC1C (stereo unspecified) -1.98

# get_value(readout='cytotoxicity at 10 µM', item= CN1CCN(c2cc(CNC(=O)c3cccnc3O)ccn2)CC1 ) -5.42

Request the reported cytotoxicity at 10 µM associated with O=C(C1CC(c2ccccc2)=NO1)N1CCc2ccccc21 (stereo unspecified) -0.643

Give the measured cytotoxicity at 10 µM of Cc1nn(C)c2cn(CC(=O)N3CCN(c4ccccc4)CC3)nc12 . 6.94

If you can, please state the reported cytotoxicity at 10 µM value of O=C(Nc1cc(C(F)(F)F)ccc1Cl)c1ccc(N2CCOCC2)nn1 . -9.89

Which cytotoxicity at 10 µM value is on record for COc1ccc(-c2cc3nn(CC(N)=O)c(=O)n3c(C)n2)cc1 ? -5.29

So what's the measured cytotoxicity at 10 µM for this one? Cn1nc(C(=O)NC2CC(C)(C)NC(C)(C)C2)cc1NC(=O)C1CC1 0.754

# cytotoxicity at 10 µM lookup, item CC(C)Cn1cncc1CNC(=O)c1cccc(CC2CCNCC2)c1 -4.47

Fill in the blank: the reported cytotoxicity at 10 µM of O=C(Cc1cccs1)N1CCc2nnc(COc3cncnc3)n2CC1 is ____. 8.61

Fill in the blank: the reported cytotoxicity at 10 µM of Cn1ccnc1CN1CCCC(CCCc2ccccn2)(C(N)=O)C1 (stereo unspecified) is ____. 2.83

Which cytotoxicity at 10 µM value belongs to O=C(O)C1(Cc2ccc(-c3cccs3)cc2)CCNC1 (stereo unspecified) ? -0.74

Endpoint output: cytotoxicity at 10 µM of CCN1CC2(CCNCC2)COc2ccccc2S1(=O)=O . Value? -3.06

If you can, please state the reported cytotoxicity at 10 µM value of NCC1CCC(C(NC(=O)C2CC2)c2ccccn2)CC1 (stereo unspecified) . -12.6

Dear colleague, I am looking for the recorded cytotoxicity at 10 µM of the following compound: CCc1ccc(CN2CCC(=O)N(CC3CC3)C(C(C)C)C2)nc1 (stereo unspecified) 2.08

Fill blank: measured cytotoxicity at 10 µM of the compound CC(c1ccc(Cl)cc1)N1CCN(CCNS(C)(=O)=O)CC1 (stereo unspecified) is ____. -15.3

Recorded cytotoxicity at 10 µM for Cc1csc(CN(C)C2CCN(c3sccc3C#N)C2=O)n1 (stereo unspecified) , please? 5.44

So what does the record say about cytotoxicity at 10 µM for O=C(NCc1cccc(F)c1)N1CCC2(CC(=O)N(c3ccsc3)C2)C1 (stereo unspecified) ? -10

cytotoxicity at 10 µM for CCOCC1COCCC12CCN(C(=O)CCOC)CC2 (stereo unspecified) ? -6.4

Any idea what cytotoxicity at 10 µM was measured for CC(=O)c1cccc(S(=O)(=O)N2CCC(c3noc(C)n3)CC2)c1 ? 7.85

Given Cn1nnnc1SCCNC(=O)C1CCN(C(=O)C2CCC2)CC1 , state its recorded cytotoxicity at 10 µM. -3.22
